Biological target: segments of rabbit duodenum (Oryctolagus cuniculus, UniProt G1T803)
Sequence (G1T803 1-400): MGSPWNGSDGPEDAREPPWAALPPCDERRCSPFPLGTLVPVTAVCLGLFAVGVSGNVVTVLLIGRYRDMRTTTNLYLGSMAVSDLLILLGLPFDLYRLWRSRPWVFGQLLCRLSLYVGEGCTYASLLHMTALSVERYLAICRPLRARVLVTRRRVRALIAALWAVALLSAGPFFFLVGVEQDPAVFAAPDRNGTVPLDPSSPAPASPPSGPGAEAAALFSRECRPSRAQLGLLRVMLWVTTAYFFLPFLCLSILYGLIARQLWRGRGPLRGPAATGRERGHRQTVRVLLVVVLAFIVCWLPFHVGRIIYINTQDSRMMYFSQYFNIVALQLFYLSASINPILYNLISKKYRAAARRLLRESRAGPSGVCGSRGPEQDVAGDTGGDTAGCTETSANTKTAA
Assay: Rabbit duodenal smooth muscle strip tissue bath assay
Format: cell-based
Conditions: negative logarithm of the dose giving 50% of the maximal response to motilin; isotonic contraction of rabbit duodenum segments
Protocol: The contractile response of segments of rabbit duodenum was determined isotonically in the tissue bath according to the procedure of Depoortere et at., J. Gastrointestinal Motility, 1, 150-159 (1989). The experimental protocol consisted of an equilibration period of 1 hour; a challenge with 10^-4 M acetylcholine followed by a wash-out period; a cumulative dose-response curve of a compound with, at the end, the addition of 10^-7 M motilin; and finally 10^-4 M acetylcholine. […]
Square brackets hold non-standard residues; d marks the D form. Peptide text beside a SMILES is read from it. * marks the point of attachment. X3 = C#CC[N+](C)(C)[C@@H](Cc1ccccc1)C(=O)*; X1 = C[N+](C)(C)[C@@H](Cc1ccccc1)C(=O)*; NMe2Phe = CN(C)[C@@H](Cc1ccccc1)C(=O)*
Provide the recorded pEC50 for the entries that follow.
Lab note: jot the number down without any unit.

Prompt: Answer with the recorded pEC50 for the compound listed here: CC[C@H](C)[C@H](NC(=O)[C@@H]1CCCN1C(=O)[C@@H](NC(=O)[C@H](Cc1ccccc1)N(C)C)C(C)C)C(=O)N[C@@H](Cc1ccccc1)C(=O)N[C@H](C(=O)N[C@@H](Cc1ccc(O)cc1)C(=O)NCC(=O)N[C@@H](CCC(=O)O)C(=O)N[C@@H](CC(C)C)C(=O)N[C@@H](C)C(=O)N[C@H](CCCNC(=N)N)C(=O)N[C@@H](CC(C)C)C(=O)N[C@@H](CCCCN)C(N)=O)[C@@H](C)O (NMe2Phe-VPIFTYGELA[dR]LK-NH2)
Completion: 7.64

Prompt: Answer with the recorded pEC50 for the compound listed here: CC[C@H](C)[C@H](NC(=O)[C@@H]1CCCN1C(=O)[C@@H](NC(=O)[C@@H](N)Cc1ccccc1)C(C)C)C(=O)N[C@@H](Cc1ccccc1)C(=O)N[C@H](C(=O)N[C@@H](Cc1ccc(O)cc1)C(=O)NCC(=O)N[C@@H](CCC(=O)O)C(=O)N[C@@H](CC(C)C)C(=O)N[C@@H](CCC(N)=O)C(=O)N[C@H](CCCNC(=N)N)C(=O)N[C@@H](CC(C)C)C(=O)N[C@@H](CCC(N)=O)C(=O)O)[C@@H](C)O [[D-Arg^13, Leu^13]pMOT(1-14)] (H-FVPIFTYGELQ[dR]LQ-OH)
Completion: 7.74

Prompt: Answer with the recorded pEC50 for the compound listed here: CC[C@H](C)[C@H](NC(=O)[C@H](C)NC(=O)[C@@H](NC(=O)[C@H](Cc1ccccc1)[N+](C)(C)C)C(C)C)C(=O)N[C@@H](Cc1ccccc1)C(=O)N[C@H](C(=O)N[C@@H](Cc1ccc(O)cc1)C(=O)NCC(=O)N[C@@H](CCC(=O)O)C(=O)N[C@@H](CC(C)C)C(=O)N[C@@H](C)C(=O)N[C@H](CCCNC(=N)N)C(=O)N[C@@H](CC(C)C)C(=O)N[C@H](CCC(N)=O)C(N)=O)[C@@H](C)O (X1-VAIFTYGELA[dR]L[dQ]-NH2)
Completion: 7.22

Prompt: Answer with the recorded pEC50 for the compound listed here: C#CC[N+](C)(C)[C@@H](Cc1ccccc1)C(=O)N[C@H](C(=O)N1CCC[C@H]1C(=O)N[C@H](C(=O)N[C@@H](Cc1ccccc1)C(=O)N[C@H](C(=O)N[C@@H](Cc1ccc(O)cc1)C(=O)NCC(=O)N[C@@H](CCC(=O)O)C(=O)N[C@@H](CC(C)C)C(=O)N[C@@H](CCC(N)=O)C(=O)N[C@@H](CCCNC(=N)N)C(=O)N[C@@H](CC(C)C)C(=O)N[C@@H](CCC(N)=O)C(N)=O)[C@@H](C)O)[C@@H](C)CC)C(C)C (X3-VPIFTYGELQRLQ-NH2)
Completion: 7.65

Prompt: Answer with the recorded pEC50 for the compound listed here: CC[C@H](C)[C@H](NC(=O)[C@H](C)NC(=O)[C@@H](NC(=O)[C@H](Cc1ccccc1)[N+](C)(C)C)C(C)C)C(=O)N[C@@H](Cc1ccccc1)C(=O)N[C@H](C(=O)N[C@@H](Cc1ccc(O)cc1)C(=O)NCC(=O)N[C@@H](CCC(=O)O)C(=O)N[C@@H](CC(C)C)C(=O)N[C@@H](C)C(=O)N[C@H](CCCNC(=N)N)C(=O)N[C@@H](CC(C)C)C(=O)N[C@H](CCCCN)C(N)=O)[C@@H](C)O (X1-VAIFTYGELA[dR]L[dK]-NH2)
Completion: 7.55

----------
molecular target: segments of rabbit duodenum (Oryctolagus cuniculus, UniProt G1T803); experiment: Rabbit duodenal smooth muscle strip tissue bath assay; assay type: cell-based; conditions: negative logarithm of the dose giving 50% of the maximal response to motilin; isotonic contraction of rabbit duodenum segments
Square brackets hold non-standard residues; d marks the D form. Peptide text beside a SMILES is read from it. NMeF = CN[C@@H](Cc1ccccc1)C(=O)O; Cha = N[C@@H](CC1CCCCC1)C(=O)O
observed-property: pEC50
Lab note: jot the number down without any unit.

Prompt: Check segments of rabbit duodenum (Oryctolagus cuniculus, UniProt G1T803) data and give pEC50 for CC[C@H](C)[C@H](NC(=O)[C@H](C)NC(=O)[C@@H](NC(=O)[C@H](Cc1ccccc1)NC)C(C)C)C(=O)N[C@@H](Cc1ccccc1)C(=O)N[C@H](C(=O)N[C@@H](Cc1ccc(O)cc1)C(=O)NCC(=O)N[C@@H](CCC(=O)O)C(=O)N[C@@H](CC(C)C)C(=O)N[C@@H](C)C(=O)N[C@H](CCCNC(=N)N)C(=O)N[C@@H](CC(C)C)C(=O)N[C@@H](CCCCN)C(N)=O)[C@@H](C)O (H-[NMeF]VAIFTYGELA[dR]LK-NH2) .
Completion: 7.77

Prompt: Check segments of rabbit duodenum (Oryctolagus cuniculus, UniProt G1T803) data and give pEC50 for CC[C@H](C)[C@H](NC(=O)[C@@H]1CCCN1C(=O)[C@@H](NC(=O)[C@@H](N)CC1CCCCC1)C(C)C)C(=O)N[C@@H](Cc1ccccc1)C(=O)N[C@H](C(=O)N[C@@H](Cc1ccc(O)cc1)C(=O)NCC(=O)N[C@@H](CCC(=O)O)C(=O)N[C@@H](CC(C)C)C(=O)N[C@@H](CCC(N)=O)C(=O)N[C@H](CCCNC(=N)N)C(=O)N[C@@H](CC(C)C)C(=O)N[C@@H](CCC(N)=O)C(=O)O)[C@@H](C)O [[Cha^1, D-Arg^12, Leu^13]pMOT(1-14)] (H-[Cha]VPIFTYGELQ[dR]LQ-OH) .
Completion: 7.60

----------
Provide the recorded pEC50 for the entries that follow.
molecular target: segments of rabbit duodenum (Oryctolagus cuniculus, UniProt G1T803); assay: Rabbit duodenal smooth muscle strip tissue bath assay; assay type: cell-based; conditions: negative logarithm of the dose giving 50% of the maximal response to motilin; isotonic contraction of rabbit duodenum segments
Square brackets hold non-standard residues; d marks the D form. Peptide text beside a SMILES is read from it. * marks the point of attachment. NMe2Phe = CN(C)[C@@H](Cc1ccccc1)C(=O)*; NMeF = CN[C@@H](Cc1ccccc1)C(=O)O

Prompt: Answer with the recorded pEC50 for the compound listed here: CC[C@H](C)[C@H](NC(=O)[C@H](C)NC(=O)[C@@H](NC(=O)[C@H](Cc1ccccc1)N(C)C)C(C)C)C(=O)N[C@@H](Cc1ccccc1)C(=O)N[C@H](C(=O)N[C@@H](Cc1ccc(O)cc1)C(=O)NCC(=O)N[C@@H](CCC(=O)O)C(=O)N[C@@H](CC(C)C)C(=O)N[C@@H](C)C(=O)N[C@H](CCCNC(=N)N)C(=O)N[C@@H](CC(C)C)C(=O)N[C@H](CCCCN)C(N)=O)[C@@H](C)O (NMe2Phe-VAIFTYGELA[dR]L[dK]-NH2)
Completion: 7.73

Prompt: Answer with the recorded pEC50 for the compound listed here: CC[C@H](C)[C@H](NC(=O)[C@@H]1CCCN1C(=O)[C@@H](NC(=O)[C@@H](N)Cc1ccccc1)C(C)C)C(=O)N[C@@H](Cc1ccccc1)C(=O)N[C@H](C(=O)N[C@@H](Cc1ccc(O)cc1)C(=O)NCC(=O)N[C@@H](CCC(=O)O)C(=O)N[C@@H](CC(C)C)C(=O)N[C@@H](C)C(=O)N[C@H](CCCNC(=N)N)C(=O)N[C@@H](CC(C)C)C(=O)N[C@@H](CCC(N)=O)C(=O)O)[C@@H](C)O [[Ala^11, D-Arg^12, Leu^13]pMOT(1-14)] (H-FVPIFTYGELA[dR]LQ-OH)
Completion: 7.63

Prompt: Answer with the recorded pEC50 for the compound listed here: CC[C@H](C)[C@H](NC(=O)[C@@H]1CCCN1C(=O)[C@@H](NC(=O)[C@H](Cc1ccccc1)NC)C(C)C)C(=O)N[C@@H](Cc1ccccc1)C(=O)N[C@H](C(=O)N[C@@H](Cc1ccc(O)cc1)C(=O)NCC(=O)N[C@@H](CCC(=O)O)C(=O)N[C@@H](CC(C)C)C(=O)N[C@@H](CCC(N)=O)C(=O)N[C@H](CCCNC(=N)N)C(=O)N[C@@H](CC(C)C)C(=O)N[C@@H](CCC(N)=O)C(=O)O)[C@@H](C)O [[N-MePhe^1, D-Arg^12, Leu^13]pMOT(1-14)] (H-[NMeF]VPIFTYGELQ[dR]LQ-OH)
Completion: 7.71

Prompt: Answer with the recorded pEC50 for the compound listed here: CC[C@H](C)[C@H](NC(=O)[C@@H]1CCCN1C(=O)[C@@H](NC(=O)[C@H](Cc1ccccc1)N(C)C)C(C)C)C(=O)N[C@@H](Cc1ccccc1)C(=O)N[C@H](C(=O)N[C@@H](Cc1ccc(O)cc1)C(=O)NCC(=O)N[C@@H](CCC(=O)O)C(=O)N[C@@H](CC(C)C)C(=O)N[C@@H](C)C(=O)N[C@H](CCCNC(=N)N)C(=O)N[C@@H](CC(C)C)C(=O)N[C@H](CCCCN)C(N)=O)[C@@H](C)O (NMe2Phe-VPIFTYGELA[dR]L[dK]-NH2)
Completion: 7.69

Prompt: Answer with the recorded pEC50 for the compound listed here: CC[C@H](C)[C@H](NC(=O)[C@@H]1CCCN1C(=O)[C@@H](NC(=O)[C@H](Cc1ccccc1)N(C)C)C(C)C)C(=O)N[C@@H](Cc1ccccc1)C(=O)N[C@H](C(=O)N[C@@H](Cc1ccc(O)cc1)C(=O)NCC(=O)N[C@@H](CCC(=O)O)C(=O)N[C@@H](CC(C)C)C(=O)N[C@@H](CCC(N)=O)C(=O)N[C@H](CCCNC(=N)N)C(=O)N[C@@H](CC(C)C)C(=O)N[C@@H](CCCCN)C(N)=O)[C@@H](C)O (NMe2Phe-VPIFTYGELQ[dR]LK-NH2)
Completion: 7.73
